The reported measurements were obtained from ChEMBL document CHEMBL1145930.

# experiment_description: Solubility in alpha-MEM culture medium
# Format: physicochemical
reported_metric: solubility (µM)
Hi! Could you send only the number? It should be in µM, unit omitted.

{"compound": "COc1cc2cc(C(=O)C3CN(CCl)c4cc(NC(=O)OCc5ncc([N+](=O)[O-])n5CCO)c5ccccc5c43)[nH]c2c(OC)c1OC (centres undefined)", "solubility [µM]": 20}

// fetch solubility given entry COc1cc2cc(C(=O)C3CN(CCl)c4cc(NC(=O)OCc5ncn(C)c5[N+](=O)[O-])c5ccccc5c43)[nH]c2c(OC)c1OC (centres undefined)
5.5

// fetch solubility given entry COc1cc2cc(C(=O)C3CN(CCl)c4cc(NC(=O)OCc5ccc([N+](=O)[O-])o5)c5ccccc5c43)[nH]c2c(OC)c1OC (centres undefined)
11

// fetch solubility given entry COc1cc2cc(C(=O)C3CN(CCl)c4cc(NC(=O)OCc5cnc([N+](=O)[O-])n5C)c5ccccc5c43)[nH]c2c(OC)c1OC (centres undefined)
17

----------
# Tested on: V79
# experiment_description: Inhibitory activity was determined against V79 cell line in chinese hamster
# Type: functional, cell-based
# experimental_conditions: Cricetulus griseus
reported_metric: IC50 (µM)
Hi! Could you send only the number? It should be in µM, unit omitted.

{"molecule": "CCOC(=O)c1cc(COC(=O)Nc2cc3c(c4ccccc24)C(C(=O)c2cc4cc(OC)c(OC)c(OC)c4[nH]2)CN3CCl)c([N+](=O)[O-])n1C (configuration not stated)", "reported_metric": "IC50", "measurement_unit": "µM", "numeric_result": 24}
{"molecule": "COc1cc2cc(C(=O)C3CN(CCl)c4cc(NC(=O)OCc5ccc([N+](=O)[O-])s5)c5ccccc5c43)[nH]c2c(OC)c1OC (configuration not stated)", "reported_metric": "IC50", "measurement_unit": "µM", "numeric_result": 0.0035}
{"molecule": "COc1cc2cc(C(=O)C3CN(CCl)c4cc(NC(=O)OCc5c([N+](=O)[O-])ncn5C)c5ccccc5c43)[nH]c2c(OC)c1OC (configuration not stated)", "reported_metric": "IC50", "measurement_unit": "µM", "numeric_result": 55}
{"molecule": "COc1cc2cc(C(=O)C3CN(CCl)c4cc(NC(=O)OCc5ccc([N+](=O)[O-])o5)c5ccccc5c43)[nH]c2c(OC)c1OC (configuration not stated)", "reported_metric": "IC50", "measurement_unit": "µM", "numeric_result": 20}

Name the recorded IC50 of COc1cc2cc(C(=O)C3CN(CCl)c4cc(NC(=O)OCc5ccc([N+](=O)[O-])n5C)c5ccccc5c43)[nH]c2c(OC)c1OC (configuration not stated) , assay system V79.
53

Name the recorded IC50 of COc1cc2cc(C(=O)C3CN(CCl)c4cc(NC(=O)OCc5ncc([N+](=O)[O-])n5CCO)c5ccccc5c43)[nH]c2c(OC)c1OC (configuration not stated) , assay system V79.
94

Name the recorded IC50 of COc1cc2cc(C(=O)C3CN(CCl)c4cc(NC(=O)OCc5cnn(C)c5[N+](=O)[O-])c5ccccc5c43)[nH]c2c(OC)c1OC (configuration not stated) , assay system V79.
41

----------
# System: V79
# experiment_description: Ratio between V79 and V79-NTRpuro was determined
# Assay type: functional, Cricetulus griseus
# Ratio values compiled below
# respond with the number and nothing more

Worked set:
{"compound": "COc1cc2cc(C(=O)C3CN(CCl)c4cc(NC(=O)OCc5cnc([N+](=O)[O-])n5C)c5ccccc5c43)[nH]c2c(OC)c1OC (centres undefined)", "Ratio": 14.7}
{"compound": "COc1cc2cc(C(=O)C3CN(CCl)c4cc(NC(=O)OCc5ncc([N+](=O)[O-])n5C)c5ccccc5c43)[nH]c2c(OC)c1OC (centres undefined)", "Ratio": 10}
{"compound": "COc1cc2cc(C(=O)C3CN(CCl)c4cc(NC(=O)OCc5c([N+](=O)[O-])ncn5C)c5ccccc5c43)[nH]c2c(OC)c1OC (centres undefined)", "Ratio": 1.2}
{"compound": "NC(=O)c1cc(N2CC2)c([N+](=O)[O-])cc1[N+](=O)[O-]", "Ratio": 2090}
{"compound": "COc1cc2cc(C(=O)C3CN(CCl)c4cc(NC(=O)OCc5ccc([N+](=O)[O-])s5)c5ccccc5c43)[nH]c2c(OC)c1OC (centres undefined)", "Ratio": 3.1}

// fetch Ratio given entry COc1cc2cc(C(=O)C3CN(CCl)c4cc(NC(=O)OCc5ccn(C)c5[N+](=O)[O-])c5ccccc5c43)[nH]c2c(OC)c1OC (centres undefined)
1.5

// fetch Ratio given entry COc1cc2cc(C(=O)C3CN(CCl)c4cc(NC(=O)OCc5ncn(C)c5[N+](=O)[O-])c5ccccc5c43)[nH]c2c(OC)c1OC (centres undefined)
1.4

// fetch Ratio given entry CCOC(=O)c1cc([N+](=O)[O-])c(COC(=O)Nc2cc3c(c4ccccc24)C(C(=O)c2cc4cc(OC)c(OC)c(OC)c4[nH]2)CN3CCl)n1C (centres undefined)
1.8

// fetch Ratio given entry COc1cc2cc(C(=O)C3CN(CCl)c4cc(NC(=O)OCc5cnn(C)c5[N+](=O)[O-])c5ccccc5c43)[nH]c2c(OC)c1OC (centres undefined)
37
